The origin of these recorded values is patent US9233167B2.

protocol: in vivo
test.context: male, Sprague-Dawley, rat, plasma, iv, 1 mg/kg
experimental.readout: Cmax
Write the figure, then the unit, nothing else.

query: Item under review: COc1ccc2c3c1O[C@H]1[C@@H](O)C=C[C@H]4[C@@H](C2)N(C)CC[C@@]341 [Codeine] . Reported Cmax?
result: 469 ng/mL

* * *

What Cmax was measured for each of the following?
protocol: Intravenous pharmacokinetics in Sprague-Dawley rats
test.context: hydroxycodone series, IV 1 mg/kg, rats, Mean ± SD
Enter your answer as a number in ng/mL; do not include the unit.

query: Item under review: COCCOCCOCCOCCO[C@H]1CC[C@@]2(O)[C@H]3Cc4ccc(OC)c5c4[C@@]2(CCN3C)[C@H]1O5 [α-6-mPEG4-O-Hydroxycodone, α-6-mPEG4-O-hydroxycodone] . Reported Cmax?
result: 537

query: Item under review: COCCOCCOCCOCCOCCOCCOCCO[C@H]1CC[C@@]2(O)[C@H]3Cc4ccc(OC)c5c4[C@@]2(CCN3C)[C@H]1O5 [α-6-mPEG7-O-Hydroxycodone, α-6-mPEG7-O-oxycodone] . Reported Cmax?
result: 489

query: Item under review: COCCOCCOCCOCCOCCOCCO[C@H]1CC[C@@]2(O)[C@H]3Cc4ccc(OC)c5c4[C@@]2(CCN3C)[C@H]1O5 [α-6-mPEG6-O-Hydroxycodone, α-6-mPEG6-O-hydroxycodone] . Reported Cmax?
result: 445
